Experiment: inhibitors of the yeast RAM network, pilot screen, dse1pr::URA3 reporter, 5-FOA selection (AID 869);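 also: 0% = DMSO wells with no growth and 100% = 10 µM 1-NA-PP1 with full growth; RAM network block rescues cells from 5-FOA so hits raise OD615 growth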
Details: S. cerevisiae dse1pr::URA3 5-FOA growth, OD615, 2 d; at 10 µM; active compounds read high; strain carries analog-sensitive mutant Cbk1 kinase
Active and inactive are the calls of the source.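 The calls were made as follows: active = inhibition over a set limit, the all-compound mean plus 3 SD, in both replicate runs; inconclusive = over that limit in just one replicate run; inactive = at or under that limit in both runs.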
PROPERTY_NAME: inhibition

For the compound `O=C1CCCC/C1=C\Nc1ccc(Cl)cn1` , give its measured inhibition value.
2.25% (inactive)

For the compound `O=C(NCc1ccco1)C1CCN(S(=O)(=O)c2cccc3cccnc23)CC1` , give its measured inhibition value.
2.12% (inactive)

For the compound `O=c1[nH]c(=S)[nH]nc1Cc1ccccc1` , give its measured inhibition value.
0.12% (inactive)

For the compound O=C(c1ccccn1)N(CC1CCCO1)C1(C(=O)NC2CCCCC2)CCCCC1 (stereo unspecified) , give its measured inhibition value.
1.69% (inactive)

For the compound `Cc1sc2nc(SCC(=O)N3CCCC3)[nH]c(=O)c2c1C` , give its measured inhibition value.
0.26% (inactive)

For the compound `CN(C)c1ccc(C(=O)Nc2nc3c(s2)CCCC3)cc1` , give its measured inhibition value.
0.905% (inactive)

For the compound CCOC(=O)CC1C(=O)NCCN1C(=O)c1cc2c(=O)n3ccccc3nc2s1 (stereo unspecified) , give its measured inhibition value.
1% (inactive)

For the compound `CCCc1cc(C(=O)NCc2cccs2)no1` , give its measured inhibition value.
1.34% (inactive)

For the compound `CCOc1ccc(-n2c(Cc3cc(=O)[nH]c(=O)[nH]3)nnc2SCC(=O)OC)cc1` , give its measured inhibition value.
2.62% (inactive)

For the compound `O=C(c1ccc(CS(=O)(=O)c2ccccc2)o1)N1CCN(c2ncccn2)CC1` , give its measured inhibition value.
0.185% (inactive)

For the compound CCc1cccc(NC(=O)CS(=O)Cc2nc(-c3ccc(C)cc3)oc2C)c1 (stereo unspecified) , give its measured inhibition value.
1.46% (inactive)
